# ASSAY_TEXT: Solubility study in buffer solutions pH 1.2-7.5 (shake flask, HPLC)
# Type: physicochemical
# RUN_CONDITIONS: hydrochloric acid/sodium chloride buffer pH 1.2, 37 °C, pH 1.2, simulated gastric fluid, thermodynamic from solid, pH 1.2, 37 °C, batch 190315
READOUT_LABEL: solubility at 48 h (mg/mL)
Answers are plain numbers, in mg/mL.

Qu. # lookup: solubility at 48 h of C[n+]1ccc(C(=O)NCc2ccccc2)cc1.[I-] [enisamium iodide]
Ans. 155

---

# ASSAY_TEXT: Solubility study in buffer solutions pH 1.2-7.5 (shake flask, HPLC)
# Format: physicochemical
# RUN_CONDITIONS: hydrochloric acid/sodium chloride buffer pH 1.2, 37 °C, pH 1.2, simulated gastric fluid, thermodynamic from solid, pH 1.2, 37 °C, batch 170215
READOUT_LABEL: solubility at 48 h
Quick note: number first, unit second.

Qu. # lookup: solubility at 48 h of C[n+]1ccc(C(=O)NCc2ccccc2)cc1.[I-] [enisamium iodide]
Ans. 152 mg/mL

Provenance of the data: paper PMC5874533
